# MEASUREMENT_TARGET: T1, Avi-Tag Fc with human IL-2R beta and IL-2R gamma attached (Acrobiosystems ACRB-ILG-H82F3-25UG) (human, UniProt P14784 27-239; P31785 23-262)
# T1 construct: bought heterodimer; also called CD122 CD132; CD122/CD132 complex
# T1 sequence (looked up) 1: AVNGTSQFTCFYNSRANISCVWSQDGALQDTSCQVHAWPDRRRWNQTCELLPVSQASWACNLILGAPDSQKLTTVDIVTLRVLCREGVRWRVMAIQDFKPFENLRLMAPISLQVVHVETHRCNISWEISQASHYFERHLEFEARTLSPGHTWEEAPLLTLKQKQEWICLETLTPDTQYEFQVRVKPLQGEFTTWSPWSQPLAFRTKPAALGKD
# T1 sequence (looked up) 2: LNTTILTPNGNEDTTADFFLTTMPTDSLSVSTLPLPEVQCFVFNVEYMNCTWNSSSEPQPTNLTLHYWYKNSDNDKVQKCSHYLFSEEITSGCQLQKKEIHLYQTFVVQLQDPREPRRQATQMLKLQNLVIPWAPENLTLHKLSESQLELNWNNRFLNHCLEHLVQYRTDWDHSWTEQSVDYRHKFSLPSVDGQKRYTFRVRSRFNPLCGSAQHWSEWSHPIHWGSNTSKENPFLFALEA
# PROCEDURE_DETAILS: BLI (Octet), receptor on SAX2 sensor, MMP2-treated IL-2 as analyte
# Method: Bilayer interferometry (BLI) assays were used to measure the binding constants between activatable IL-2 polypeptides (and activated versions thereof) to IL-2 receptor subunits or receptor complexes. BLI assays were conducted on an Octet® R8 instrument. Assay plates were 96 well, polypropylene, F-bottom (chimney well), black microplates (Greiner Bio-one, Cat. No: 655209). The biosensors were Octet® SAX2 (Sartorius, Cat. No: 18-5136). […]
Bridges are numbered along the chain shown (N, C = ends). [ ]: non-standard residue; d: D form. Ygp = O-(8x polyethylene glycol-amino)-tyrosine; Yn3 = O-(9x polyethylene glycol-azido)-tyrosine; hSer = N[C@@H](CCO)C(=O)O; Nle = CCCC[C@H](N)C(=O)O
# Lookup of reported kon keyed by entry
Value expressed in M⁻¹ s⁻¹; do not type the unit.

Consider the reported kon for these binders:
* CMP-166, MMP2 cleaved (ligand, not fully specified; as CMP-166 but cleavable peptide cut by MMP2 (macrocycle opened); cut site not given) APTSSSTKKTQLQLEHLLLDLQKILNGINNYKNPKLTRXLXYKFYXPKKATELKHLQCLEEELKPLEEVLXLAQSKNFHLRPRDLISNINVIVLELKGSETTFXCEYADETATIVEFLNRWITFSQSIISTLT | 567000
* CMP-165, MMP2 cleaved (ligand, disulfide 58-105 (inferred); not fully specified (residue 23, N-terminus); also: MMP2 cleaved, ring opened, cut site not given here, peptide remnants on N-terminus (via glutaryl) and on Lys23 side chain) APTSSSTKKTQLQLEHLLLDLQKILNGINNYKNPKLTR[Nle]L[hSer][Yn3]KF[Ygp][Nle]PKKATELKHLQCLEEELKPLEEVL[hSer]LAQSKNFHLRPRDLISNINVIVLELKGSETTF[hSer]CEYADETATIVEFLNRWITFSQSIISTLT | 608000
* CMP-168, MMP2 cleaved (ligand, disulfide 58-105 (inferred); not fully specified (residues 9, 23); also: cleaved by MMP2, bridge opened, remnants on Lys9 and Glu23 not defined) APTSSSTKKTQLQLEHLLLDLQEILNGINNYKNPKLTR[Nle]L[hSer][Yn3]KF[Ygp][Nle]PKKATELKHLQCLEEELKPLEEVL[hSer]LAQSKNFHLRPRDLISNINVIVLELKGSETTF[hSer]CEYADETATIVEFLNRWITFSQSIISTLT | 602000

Please look at the following binder next.
Query string: What value of kon has been recorded for this entry: CMP-167, MMP2 cleaved (ligand, not fully specified; as CMP-167 but cleavable peptide cut by MMP2 (macrocycle opened); cut site not given) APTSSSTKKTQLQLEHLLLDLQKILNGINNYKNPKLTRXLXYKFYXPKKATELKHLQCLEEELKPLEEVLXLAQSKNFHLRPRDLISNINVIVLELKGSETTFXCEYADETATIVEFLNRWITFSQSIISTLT
Result string: 594000
